Target: Human erythrocyte AChE (Homo sapiens, UniProt P22303)
Sequence (P22303 32-617 isoform P22303-2 limits assumed): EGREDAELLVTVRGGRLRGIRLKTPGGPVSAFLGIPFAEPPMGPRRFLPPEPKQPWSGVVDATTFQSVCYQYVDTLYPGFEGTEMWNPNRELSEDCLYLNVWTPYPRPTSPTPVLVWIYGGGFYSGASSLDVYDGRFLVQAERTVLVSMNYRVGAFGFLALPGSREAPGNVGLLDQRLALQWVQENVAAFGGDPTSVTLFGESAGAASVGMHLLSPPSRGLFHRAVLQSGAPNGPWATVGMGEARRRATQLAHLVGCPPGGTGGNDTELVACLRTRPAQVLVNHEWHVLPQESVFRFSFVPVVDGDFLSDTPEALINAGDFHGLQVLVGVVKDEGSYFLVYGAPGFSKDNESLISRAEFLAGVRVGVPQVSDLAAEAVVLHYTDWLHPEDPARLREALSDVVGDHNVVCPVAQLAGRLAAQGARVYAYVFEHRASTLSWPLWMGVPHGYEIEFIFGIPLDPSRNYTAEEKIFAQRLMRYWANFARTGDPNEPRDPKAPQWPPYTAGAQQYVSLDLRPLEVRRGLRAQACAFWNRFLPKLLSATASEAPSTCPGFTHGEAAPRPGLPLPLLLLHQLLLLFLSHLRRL
VALUE KIND: pKi
FYI, pKi means -log10 of a concentration in mol per litre.

Give a short answer stating reported pKi for CC(C)(C)c1cc(C=NCCNc2c3c(nc4ccccc24)CCCCC3)cc(C(C)(C)C)c1O .
5.80

----------
System: mouse brain homogenate
Test: TBARS assay, spontaneous lipid peroxidation in mouse brain homogenate
Conditions: read-out: Inhibition of Spontaneous Lipid Peroxidation in Mice Brain Homogenate, TBARS Assay, IC50
pIC50 overview
FYI, pIC50 means -log10 of a concentration in mol per litre.

Please review the entries below; each comes with its answer.
CC(C)(C)c1cc(C=NCCNc2c3c(nc4ccccc24)CCCCCC3)cc(C(C)(C)C)c1O : 4.83
CC(C)(C)c1cc(CNCCNc2c3c(nc4ccccc24)CCCCC3)cc(C(C)(C)C)c1O : 5.03
Cc1c(C)c2c(c(C)c1O)CCC(C)(C(=O)O)O2 (centres unmarked) [Trolox, reference compound] : 4.04
CC(C)(C)c1cc(C=NCCNc2c3c(nc4ccccc24)CCC3)cc(C(C)(C)C)c1O : 4.71
CC(C)(C)c1cc(CNCCNc2c3c(nc4ccccc24)CCC3)cc(C(C)(C)C)c1O : 5.21
CC(C)(C)c1cc(C=NCCNc2c3c(nc4ccccc24)CCCC3)cc(C(C)(C)C)c1O : 5.14

Please respond with reported pIC50 (system mouse brain homogenate) for CC(C)(C)c1cc(C=NCCNc2c3c(nc4ccccc24)CCCCC3)cc(C(C)(C)C)c1O .
4.98

Please respond with reported pIC50 (system mouse brain homogenate) for Cc1cc(C(C)(C)C)c(O)c(C(C)(C)C)c1 [BHT, butylated hydroxytoluene, reference compound] .
5.16
